Test system: senescent IMR90 primary lung fibroblasts
EXPERIMENT NOTES: Cytotoxicity assay (XTT), senescent IMR90 cells
Type: cell-based
STATED CONDITIONS: Homo sapiens, IMR-90, IMR90 senescence induced with 300 nM doxorubicin, incubated with drug for 72 hours, read-out: IMR90 SEN
EXPERIMENTAL ENDPOINT: IC50 (µM)
Give bare numbers, in µM.

stdin: I would be grateful if you could share the reported IC50 for `CC(=O)O[C@H]1[C@H](C)O[C@@H](ONC(=O)/C=C/c2ccc(CNCCc3c(C)[nH]c4ccccc34)cc2)C[C@@H]1OC(C)=O` .
stdout: 3.78

* * *

Assignment: determine reported IC50 for the given molecules.
Test system: T47D breast cancer cells, sgGLB sgGALC
EXPERIMENT NOTES: CRISPR-engineered cancer cell line viability assay (XTT), T47D/sgGLB sgGALC
Type: cell-based
STATED CONDITIONS: Homo sapiens, 72 h, T47D cells with Cas9 and sgGLB sgGALC, treated for three days, absolute IC50 at Y=0.5 viability
Experimental: T47D and HCC1954 breast cancer cells were cultured in RPMI 1640 medium containing 10% heat inactivated fetal bovine serum. Cell lines were infected with lentiviral construct(s) containing S. pyogenes Cas9 and sgRNA(s) targeting the gene(s) of interest. […] Cell viability was determined by mitochondrial dehydrogenase activity (XTT assay, Cayman Chemical). To generate dose-response curves, data was fitted to a four-parameter Hill function and the absolute IC50 was determined at Y=0.5 viability.

Cc1[nH]c2ccccc2c1CCNCc1ccc(/C=C/C(=O)NO[C@@H]2O[C@H](CF)[C@H](O)[C@H](O)[C@H]2O)cc1 [Compound 122]
> 30 µM

Next item in the queue.
stdin: Param item = Cc1[nH]c2ccccc2c1CCNCc1ccc(/C=C/C(=O)NO[C@@H]2O[C@H](CO)C[C@H](O)[C@H]2O)cc1 [Compound 124] ; retrieve measured IC50.
stdout: > 30 µM

* * *

Tested on: T47D breast cancer cells, sgFUCA1
EXPERIMENT NOTES: CRISPR-engineered cancer cell line viability assay (XTT), T47D/sgFUCA1
Format: cell-based
STATED CONDITIONS: Homo sapiens, 72 h, T47D cells with Cas9 and sgFUCA1, treated for three days, absolute IC50 at Y=0.5 viability
EXPERIMENTAL ENDPOINT: pIC50
Give bare numbers, as −log10 of the molar value.

In the examples that follow, each entry is paired with its recorded pIC50.
Cc1[nH]c2ccccc2c1CCNCc1ccc(/C=C/C(=O)NO[C@H]2C[C@H](O)[C@@H](O)[C@H](C)O2)cc1
4.79
CC(=O)O[C@H]1[C@H](C)O[C@@H](ONC(=O)/C=C/c2ccc(CN(CCc3c(C)[nH]c4ccccc34)C(=O)OCc3oc(=O)oc3C)cc2)C[C@@H]1OC(C)=O
5.54

Now let's try a different one.
stdin: Need pIC50 of `CC(=O)O[C@@H]1[C@H](C)O[C@@H](ONC(=O)c2cnc(N3CCC(CNCc4cn(C)c5ccccc45)CC3)nc2)C[C@@H]1OC(C)=O` , thanks.
stdout: 6.00

* * *

Tested on: T47D breast cancer cells, sgNTC
EXPERIMENT NOTES: CRISPR-engineered cancer cell line viability assay (XTT), T47D sgNTC
Assay type: cell-based
STATED CONDITIONS: Homo sapiens, 72 h, T47D cells with Cas9 and sgNTC, treated for three days, absolute IC50 at Y=0.5 viability, read-out: T47/D sgNTC
I'd appreciate it if you could supply log10(IC50) values for the items below.
Recall that a logarithmic scale is used here: each number is log10 of IC50 in nM.

These solved cases illustrate the format of a correct answer.
CC(=O)O[C@H]1[C@H](C)O[C@@H](ONC(=O)/C=C/c2ccc(CN(CCc3c(C)[nH]c4ccccc34)C(=O)OCc3oc(=O)oc3C)cc2)C[C@@H]1OC(C)=O
1.73
CC(=O)O[C@@H]1[C@H](C)O[C@@H](ONC(=O)c2cnc(N3CCC(CNCc4cn(C)c5ccccc45)CC3)nc2)C[C@@H]1OC(C)=O
0.97
CC(=O)O[C@H]1[C@H](C)O[C@@H](ONC(=O)/C=C/c2ccc(CNCCc3c(C)[nH]c4ccccc34)cc2)C[C@@H]1OC(C)=O
1.40
Cc1[nH]c2ccccc2c1CCNCc1ccc(/C=C/C(=O)NO[C@H]2C[C@H](O)[C@@H](O)[C@H](C)O2)cc1
2.91

Please look at the items below and tell me log10(IC50) for each one, in order.
1. Cc1[nH]c2ccccc2c1CCNCc1ccc(/C=C/C(=O)NO[C@@H]2O[C@H](CO)C[C@H](O)[C@H]2O)cc1
2. C[C@@H]1O[C@@H](ONC(=O)c2cnc(N3CCC(CNCc4cn(C)c5ccccc45)CC3)nc2)C[C@H](O)[C@@H]1O

stdout:
[3.99, 2.97]
